molecular target: human Gal-1 (hGal-1); assay: Competitive binding assay: binding of biotinylated hGal-1 to microplate-adsorbed asialofetuin (ASF); details: Activities on hGal-1; mean values of several measurements
Sequence (P09382 2-135 limits assumed): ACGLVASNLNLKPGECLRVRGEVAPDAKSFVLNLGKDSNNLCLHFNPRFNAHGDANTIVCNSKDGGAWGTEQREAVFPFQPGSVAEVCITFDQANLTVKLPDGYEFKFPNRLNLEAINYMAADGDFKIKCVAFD
pIC50: −log10 of the molar value.
Would you mind labelling by pIC50? At or over 6 is Satisfied, under is Not satisfied.

Check if pIC50 >= 6 (inclusive). Item: "CN=[S@@](=O)(C(C)C)N1CCC(c2cc(C[C@H]3O[C@H](CO)[C@H](O)[C@H](n4cc(-c5cc(F)c(F)c(F)c5)nn4)[C@H]3OC)no2)CC1" Not satisfied

Check if pIC50 >= 6 (inclusive). Item: CC(C)(C)OC(=O)NC1CCC(c2cc(C[C@H]3O[C@H](CO)[C@H](O)[C@H](n4cc(-c5cc(F)c(F)c(F)c5)nn4)[C@H]3O)no2)CC1 (stereo partly drawn) [Ex 1.81] Not satisfied

Check if pIC50 >= 6 (inclusive). Item: OC[C@H]1O[C@H](CC2CC(C3CCNCC3)=NO2)[C@H](O)[C@@H](n2cc(-c3cc(F)c(F)c(F)c3)nn2)[C@H]1O (mixture of isomers) Not satisfied

Check if pIC50 >= 6 (inclusive). Item: "CO[C@@H]1[C@@H](n2cc(-c3cc(F)c(F)c(F)c3)nn2)[C@@H](O)[C@@H](CO)O[C@@H]1Cc1cc(C2(C)CCOCC2)on1" Not satisfied

Check if pIC50 >= 6 (inclusive). Item: CC(C)(C)OC(=O)N1CCC(C2=NOC(C[C@H]3O[C@H](CO)[C@H](O)[C@H](n4cc(-c5ccc(Cl)c(Cl)c5)nn4)[C@H]3O)C2)CC1 (stereo partly drawn) Satisfied

Check if pIC50 >= 6 (inclusive). Item: CC(C)(C)OC(=O)N1CCC(C2=NOC(C[C@H]3O[C@H](CO)[C@H](O)[C@H](n4cc(-c5nc6ccccc6s5)nn4)[C@H]3O)C2)CC1 (stereo partly drawn) Satisfied

Check if pIC50 >= 6 (inclusive). Item: "CO[C@@H]1[C@@H](n2cc(-c3cc(F)c(F)c(F)c3)nn2)[C@@H](O)[C@@H](CO)O[C@@H]1Cn1cc(C(C)(C)O)nn1" Not satisfied

Check if pIC50 >= 6 (inclusive). Item: "CO[C@@H]1[C@@H](n2cc(-c3cc(F)c(F)c(F)c3)nn2)[C@@H](O)[C@@H](CO)O[C@@H]1Cc1cc(-c2nc(Br)cs2)on1" Not satisfied

###

target: human Gal-3 (hGal-3) (Homo sapiens (Human))
Sequence (P17931 whole entry): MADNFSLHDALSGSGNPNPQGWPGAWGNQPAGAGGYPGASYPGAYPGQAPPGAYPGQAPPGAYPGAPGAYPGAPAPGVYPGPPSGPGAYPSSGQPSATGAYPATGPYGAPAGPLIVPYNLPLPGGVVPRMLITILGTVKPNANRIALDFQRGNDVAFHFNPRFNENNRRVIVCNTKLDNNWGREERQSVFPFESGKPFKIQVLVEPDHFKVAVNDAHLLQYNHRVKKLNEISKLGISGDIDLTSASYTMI
pIC50: −log10 of the molar value.
Would you mind labelling by pIC50? At or over 7 is 1.0, under is 0.0.

Check if pIC50 >= 7 (inclusive). Item: "OC[C@H]1O[C@H](Cc2cc(C3CCNCC3)on2)[C@H](O)[C@@H](n2cc(-c3cc(F)c(F)c(F)c3)nn2)[C@H]1O" 0.0

Check if pIC50 >= 7 (inclusive). Item: "Cc1ccc(-c2cn([C@H]3[C@@H](O)[C@@H](CO)O[C@H](Cc4cc(C(C)(C)C)on4)[C@@H]3O)nn2)c(F)c1F" 1.0

Check if pIC50 >= 7 (inclusive). Item: "CO[C@@H]1[C@@H](n2cc(-c3ccc(Cl)c(F)c3F)nn2)[C@@H](O)[C@@H](CO)O[C@@H]1Cc1cc(C2(C)CCCC2)no1" 1.0

Check if pIC50 >= 7 (inclusive). Item: CO[C@@H]1[C@@H](n2cc(-c3cc(F)c(F)c(F)c3)nn2)[C@@H](O)[C@@H](CO)O[C@@H]1C[C@H]1CC(c2cc[nH]c(=O)c2)=NO1 [Example 2.07b] 0.0

Check if pIC50 >= 7 (inclusive). Item: CO[C@@H]1[C@@H](n2cc(-c3cc(F)c(F)c(F)c3)nn2)[C@@H](O)[C@@H](CO)O[C@@H]1Cc1cc(C2(O)CCCN(C(=O)OC(C)(C)C)CC2)on1 (stereo partly drawn) 0.0

Check if pIC50 >= 7 (inclusive). Item: "CO[C@@H]1[C@@H](n2cc(-c3cc(F)c(F)c(F)c3)nn2)[C@@H](O)[C@@H](CO)O[C@@H]1Cn1cc(C2CCN(C(=O)NC(C)(C)C)CC2)nn1" 1.0

Check if pIC50 >= 7 (inclusive). Item: "CCOC(=O)N1CCC(c2cc(C[C@H]3O[C@H](CO)[C@H](O)[C@H](n4cc(-c5ccc(C)c(F)c5F)nn4)[C@H]3OC)no2)CC1" 1.0

Reference source for all entries: patent US12319672B2
